B1: tRNA (parent)
chain: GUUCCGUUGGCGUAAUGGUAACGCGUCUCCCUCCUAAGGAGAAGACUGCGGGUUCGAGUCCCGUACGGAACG

Variants of: B1
Assay: yeast fitness, log relative to wild type (ln ratio); higher = fitter; tRNA-Arg(CCU), competitive growth, 37 C, 1 M NaCl
observation-type: yeast fitness (ln)

residue-change	observation-type	result
G1A U2C G6A C46U C66A A70G C71U	yeast fitness (ln)	-0.105
U2G G6A C46U C66A A70G C71U	yeast fitness (ln)	-0.148
U2C G6U A70U	yeast fitness (ln)	-0.0726
G1A C46U C66U A69G A70U	yeast fitness (ln)	-0.162
C27U C46U C66U A69G C71U	yeast fitness (ln)	-0.286
U2G A43C C46U C66A	yeast fitness (ln)	-0.101
G1A U2G G6U A43C A69G A70U	yeast fitness (ln)	-0.456
G1A G6U A43C C66U A70G	yeast fitness (ln)	-0.339
G6U C27U C66U	yeast fitness (ln)	-0.321
G6U A43C C66U	yeast fitness (ln)	-0.23
U2G G6U C27U C46U C66U A69G C71U	yeast fitness (ln)	-0.527
G1A U2C G6A	yeast fitness (ln)	0.00615
G1A U2C G6A C46U C66U A70G C71U	yeast fitness (ln)	0.0112
C27U A43C C46U	yeast fitness (ln)	-0.00723
G6U C27U C46U C66U C71U	yeast fitness (ln)	-0.359
G1A C27U C46U C66A A70U	yeast fitness (ln)	-0.182
U2G C27U C46U C66A C71U	yeast fitness (ln)	-0.163
U2C G6A C27U A43C C66U A69G A70U C71U	yeast fitness (ln)	-0.351
U2C G6U C27U A43C C66A A70U C71U	yeast fitness (ln)	-0.272
U2G G6A C27U A70U C71U	yeast fitness (ln)	-0.144
G6A C46U C71U	yeast fitness (ln)	-0.359
U2G A69G A70G C71U	yeast fitness (ln)	-0.191
U2C G6U C66U A69G A70G C71U	yeast fitness (ln)	-0.346
G1A U2G C27U A69G A70U	yeast fitness (ln)	-0.188
G1A U2G G6A C27U A43C A69G C71U	yeast fitness (ln)	-0.673
G1A U2G G6U C27U A69G A70U C71U	yeast fitness (ln)	-0.404
G6U C27U A43C C46U A70U	yeast fitness (ln)	-0.206
G6U C27U A43C C66U A70U C71U	yeast fitness (ln)	-0.372
G6A A69G A70U C71U	yeast fitness (ln)	-0.315
G6A C27U A70U	yeast fitness (ln)	-0.17
G1A G6U C27U C46U C66A	yeast fitness (ln)	-0.32
U2G G6U C27U A43C C46U C66A A69G A70G	yeast fitness (ln)	-0.187
G1A U2G A43C A69G A70U C71U	yeast fitness (ln)	-0.54
G6A A43C A69G C71U	yeast fitness (ln)	-0.29
G6A C27U C66U A69G A70G C71U	yeast fitness (ln)	-0.256
G1A U2G G6U A43C C46U A70G C71U	yeast fitness (ln)	-0.338
G6A A43C C66U A69G A70G C71U	yeast fitness (ln)	-0.261
U2C G6A C27U A70G C71U	yeast fitness (ln)	-0.282
G1A U2C G6A A43C A70G C71U	yeast fitness (ln)	-0.13
G1A C27U C46U C71U	yeast fitness (ln)	-0.0338
U2C G6A A43C C71U	yeast fitness (ln)	-0.0318
G1A U2G C27U C66U A70U	yeast fitness (ln)	-0.174
G1A U2G C27U A43C C46U C66U C71U	yeast fitness (ln)	-0.277
G6U C46U A69G	yeast fitness (ln)	-0.397
U2G G6A C27U C46U C66A A69G A70G	yeast fitness (ln)	-0.134
G1A G6U C27U A43C C46U A69G A70G C71U	yeast fitness (ln)	-0.414
